Numbers sourced from patent US6015560.

Overview of recorded inhibition of adherence of human neutrophils to cultured endothelial cells for various binders
# system: integrin complement receptor 3 (CR3) on human leukocytes (human, UniProt P11215)
# assay_comment: cell-based or functional assay

input: For the binder FHA peptide G (peptide) peptide: IVVEAGELVSHAGGIGNGRNKENGASVTVRTTGNLVNKGYISAGKQGVLEVGGAL , what inhibition of adherence of human neutrophils to cultured endothelial cells is on record?
output: < 15%

input: For the binder RQDFFTPGSVVVRAQGNVTVGRGDPHQGVLAQGDIIMDAKGGTLL [FHA peptide B] , what inhibition of adherence of human neutrophils to cultured endothelial cells is on record?
output: 29%

input: For the binder IGALKAGAVEAASPRRAARRALRQDFFTPGSVVVRAQGNYTVGRGD [FHA peptide A] , what inhibition of adherence of human neutrophils to cultured endothelial cells is on record?
output: < 15%

input: For the binder LEHSTIESKISQSVLAAKGDKGKPAVSVKVAKKLFLNGTLRAVND [FHA peptide D] , what inhibition of adherence of human neutrophils to cultured endothelial cells is on record?
output: < 15%

input: For the binder RPQITDAVTGEARKDESVVSDAALVADGGPIVVEAGELVSHAGGI [FHA peptide F] , what inhibition of adherence of human neutrophils to cultured endothelial cells is on record?
output: < 15%

input: For the binder RGDPHQGVLAQGDIIMDAKGGTLLLRNDALTENGTVTISADSAVL [FHA peptide C] , what inhibition of adherence of human neutrophils to cultured endothelial cells is on record?
output: 62%

input: For the binder AKKLFLNGTLRAVNDNNETMSGRQIDVVDGRPQITDAVTGEARKD [FHA peptide E] , what inhibition of adherence of human neutrophils to cultured endothelial cells is on record?
output: < 15%
